molecular target: mPGES-1 (Homo sapiens (Human), UniProt O14684); assay: mPGES-1 enzyme assay (HTRF detection of PGE2); format: biochemical; conditions: recombinant human mPGES-1 microsomes, PGH2 2 μM; read-out: mPGES-1 inhibitory effect in the enzyme assay, IC50
Sequence (O14684 whole entry): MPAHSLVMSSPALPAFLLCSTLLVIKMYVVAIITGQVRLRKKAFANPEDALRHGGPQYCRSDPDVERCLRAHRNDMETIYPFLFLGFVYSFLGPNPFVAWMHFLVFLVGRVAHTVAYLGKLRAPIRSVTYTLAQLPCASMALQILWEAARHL
Label 1 when IC50 < 3 nM; otherwise -1.

>  <Compound>
Cn1c(Nc2c(Cl)ccc(CNC(=O)C(C)(C)C)c2Cl)nc2cc(C(=O)NCC3CCCCC3)c(OCC(F)F)cc21

>  <Answer Label>
-1

$$$$

Req: Item Cn1c(Nc2c(Cl)ccc(CNC(=O)C(C)(C)C)c2Cl)nc2cc(C(=O)NC3CC4CCC3C4)c(OCC(F)F)cc21 (stereo not shown) : IC50 beneath 3 nM, strictly?
Resp: -1

Req: Item `COC(=O)c1ccc(NC(=O)c2cc3nc(Nc4c(Cl)ccc(CNC(=O)C(C)(C)C)c4Cl)n(C)c3cc2OCC(F)F)s1` : IC50 beneath 3 nM, strictly?
Resp: -1

---

target: mPGES-1 (Homo sapiens (Human), UniProt O14684); assay: A549 cell-based assay (PGE2 formation, IL-1β stimulated, 50% human serum); conditions: A549 cells, IL-1β 5 ng/ml, read-out: mPGES-1 inhibitory effect in the cell assay, IC50
pIC50: −log10 of the molar value.
Tick true (1) if pIC50 is 8 or greater. Tick false (0) if pIC50 is less than 8.

Example cases with answers are listed next.
>  <Compound>
Cn1c(Nc2c(Cl)ccc(CNC(=O)C(C)(C)C)c2Cl)nc2cc(C(=O)Nc3ncc(Cl)s3)c(OCC(F)F)cc21

>  <Answer Label>
true (1)

$$$$
>  <Compound>
Cn1c(Nc2c(Cl)ccc(CNC(=O)c3c(F)cccc3Cl)c2Cl)nc2cc(C(=O)Nc3ccc(F)c(Cl)c3)c(OCC(F)F)cc21

>  <Answer Label>
true (1)

$$$$
>  <Compound>
Cn1c(Nc2c(Cl)ccc(CNC(=O)C(C)(C)C)c2Cl)nc2cc(C(=O)NCC(F)(F)F)c(F)cc21

>  <Answer Label>
false (0)

$$$$

Req: For this compound, is measured pIC50 8 or higher? `Cn1c(Nc2c(Cl)ccc(CNC(=O)C(C)(C)C)c2Cl)nc2cc(C(=O)NCC(F)F)c(OCC(F)F)cc21`
Resp: true (1)

Req: For this compound, is measured pIC50 8 or higher? CC(O)C(=O)NCc1ccc(Cl)c(Nc2nc3cc(C(=O)Nc4ccc(F)c(Cl)c4)c(OCC(F)F)cc3n2C)c1Cl (stereo not shown)
Resp: true (1)

Req: For this compound, is measured pIC50 8 or higher? `Cn1c(Nc2c(Cl)ccc(CNC(=O)C(C)(C)C)c2Cl)nc2cc(C(=O)NCC(F)(F)F)c(OCC(F)F)cc21`
Resp: true (1)

---

molecular target: mPGES-1 (Homo sapiens (Human)); assay: A549 cell-based assay (PGE2 formation, IL-1β stimulated, 50% human serum); details: Table C comparison of selected benzimidazoles, A549 cells, read-out: Cell IC50
Exercise: state measured pIC50 for each of the compounds provided.
One number for each entry, as −log10 of the molar value.

>  <Compound>
Cn1c(Nc2cc(CNC(=O)C(C)(C)C)ccc2Cl)nc2cc(C(=O)N[C@H]3CC[C@H](C(F)(F)F)CC3)c(OCC(F)F)cc21 [[drawing 47] of PCT/EP2010/052799, reference compound]

>  <pIC50>
7.77

$$$$

# context switch: different compound, same pIC50
GET /value?item= Cn1c(Nc2c(Cl)ccc(CNC(=O)C(C)(C)C)c2Cl)nc2cc(C(=O)NCC3CC3)c(OCC(F)F)cc21 [drawing 48] &field=pIC50 returns 9.00

---

molecular target: mPGES-1 (Homo sapiens (Human)); experiment: A549 cell-based assay (PGE2 formation, IL-1β stimulated, 50% human serum); conditions: A549 cells, IL-1β 5 ng/ml, read-out: mPGES-1 inhibitory effect in the cell assay, IC50
Readout Kind: IC50

>  <Smiles Structure>
Cn1c(Nc2c(Cl)ccc(CNC(=O)C(C)(C)C)c2Cl)nc2cc(C(=O)Nc3ccc4c(c3)CCC4)c(OCC(F)F)cc21

>  <Test Target>
mPGES-1 (Homo sapiens (Human))

>  <IC50>
< 1 nM

$$$$

Hey, can you go through the list below and give me IC50 for every item?
1. Cn1c(Nc2c(Cl)ccc(CNC(=O)C(C)(C)C)c2Cl)nc2cc(C(=O)Nc3cc(Cl)ccc3Cl)c(F)cc21
2. Cn1c(Nc2c(Cl)ccc(CNC(=O)C(C)(C)C)c2Cl)nc2cc(C(=O)Nc3nc4ccc(Cl)cc4s3)c(OCC(F)F)cc21
3. Cc1ccc(Cl)cc1NC(=O)c1cc2nc(Nc3c(Cl)ccc(CNC(=O)C(C)(C)C)c3Cl)n(C)c2cc1OCC(F)F

Resp:
["1 nM", "1 nM", "< 1 nM"]

Hey, can you go through the list below and give me IC50 for every item?
1. Cn1c(Nc2c(F)ccc(CNC(=O)C(C)(C)C)c2F)nc2cc(C(=O)Nc3cccc(F)c3)c(OCC(F)F)cc21
2. Cn1c(Nc2c(Cl)ccc(CNC(=O)C3(O)CC3)c2Cl)nc2cc(C(=O)NCC(F)(F)F)c(OCC(F)F)cc21
3. Cn1c(Nc2c(Cl)ccc(CNC(=O)C(C)(C)C)c2Cl)nc2cc(C(=O)N[C@H]3CC[C@H](C(F)F)CC3)c(OCC(F)F)cc21

Resp:
9 nM
66 nM
1 nM

---

biological target: mPGES-1 (Homo sapiens (Human), UniProt O14684); experiment: A549 cell-based assay (PGE2 formation, IL-1β stimulated, 50% human serum); settings: A549 cells, IL-1β 5 ng/ml, read-out: mPGES-1 inhibitory effect in the cell assay, IC50
Readout Kind: IC50 (µM)
Give bare numbers, in µM.

Study these solved cases before continuing.
>  <Smiles Structure>
COC(C)(C)C(=O)NCc1ccc(Cl)c(Nc2nc3cc(C(=O)NCC(F)(F)F)c(OCC(F)F)cc3n2C)c1Cl

>  <Test Target>
mPGES-1 (Homo sapiens (Human), UniProt O14684)

>  <IC50 / µM>
0.003

$$$$
>  <Smiles Structure>
CC(C)(C)C(=O)NCc1ccc(Cl)c(Nc2nc3cc(C(=O)N[C@H]4CC[C@H](C(F)(F)F)CC4)c(F)c(F)c3[nH]2)c1Cl

>  <Test Target>
mPGES-1 (Homo sapiens (Human), UniProt O14684)

>  <IC50 / µM>
0.093

$$$$

# context switch: different compound, same IC50
GET /value?item= `Cn1c(Nc2c(Cl)ccc(CNC(=O)CC#N)c2Cl)nc2cc(C(=O)Nc3ccc(F)c(Cl)c3)c(OCC(F)F)cc21` &field=IC50 returns 0.036

---

Exercise: state measured pIC50 for each of the compounds provided.
target: mPGES-1 (Homo sapiens (Human)); test: A549 cell-based assay (PGE2 formation, IL-1β stimulated, 50% human serum); details: A549 cells, IL-1β 5 ng/ml, read-out: mPGES-1 inhibitory effect in the cell assay, IC50
Numbers only, as −log10 of the molar value.

>  <Smiles Structure>
Cn1c(Nc2c(Cl)ccc(CNC(=O)C(F)F)c2Cl)nc2cc(C(=O)Nc3ccc(F)c(Cl)c3)c(OCC(F)F)cc21

>  <pIC50>
9.00

$$$$

# context switch: different compound, same pIC50
GET /value?item= `Cn1c(Nc2c(Cl)ccc(CNC(=O)C(C)(C)C)c2Cl)nc2cc(C(=O)NCC3CCC3)c(OCC(F)F)cc21` &field=pIC50 returns 9.00

---

biological target: mPGES-1 (Homo sapiens (Human)); experiment: A549 cell-based assay (PGE2 formation, IL-1β stimulated, 50% human serum); conditions: A549 cells, IL-1β 5 ng/ml, read-out: mPGES-1 inhibitory effect in the cell assay, IC50
Readout Kind: pIC50
One number for each entry, as −log10 of the molar value.

Hey, can you go through the list below and give me pIC50 for every item?
1. Cn1c(Nc2c(Cl)ccc(CNC(=O)C(C)(C)C)c2Cl)nc2cc(C(=O)NC3CC(F)(F)C3)c(F)cc21 [Example 20]
2. Cn1c(Nc2c(Cl)ccc(CNC(=O)C(C)(N)C(F)(F)F)c2Cl)nc2cc(C(=O)NCC(F)(F)F)c(OCC(F)F)cc21 (stereo not shown) [Example 98]
3. COCC1(CNC(=O)c2cc3nc(Nc4c(Cl)ccc(CNC(=O)C(C)(C)C)c4Cl)n(C)c3cc2OCC(F)F)CCCC1 [Example 49]

Resp:
1: 7.85; 2: 8.70; 3: 9.00

Hey, can you go through the list below and give me pIC50 for every item?
1. Cn1c(Nc2c(Cl)ccc(CNC(=O)C(C)(C)CO)c2Cl)nc2cc(C(=O)Nc3ccc(F)c(Cl)c3)c(OCC(F)F)cc21 [Example 155]
2. CC(C)(C)C(=O)NCc1ccc(Cl)c(Nc2nc3cc(OC(F)F)c(C(=O)N[C@H]4CC[C@H](C(F)(F)F)CC4)cc3[nH]2)c1Cl [Example 78]
3. CCNC(=O)c1cc2nc(Nc3c(Cl)ccc(CNC(=O)C(C)(C)C)c3Cl)n(C)c2cc1OCC(F)F [Example 56]
4. CC(C)C(=O)NCc1ccc(Cl)c(Nc2nc3cc(C(=O)NCC(F)(F)F)c(OCC(F)F)cc3n2C)c1Cl [Example 110]

Resp:
1: 8.70; 2: 8.10; 3: 8.52; 4: 8.10
